- measurement target: F508delCFTR in primary hBE cells with F508del/F508del CFTR mutation (Homo sapiens, UniProt P13569, DEL508-508)
- Construct: cells isolated from CF patients with the homozygous mutation; endogenous in cells; host or cells: primary human bronchial epithelial (hBE) cells from F508del/F508del CF patients
- Sequence (P13569 with tags, fused parts or gaps DEL508-508): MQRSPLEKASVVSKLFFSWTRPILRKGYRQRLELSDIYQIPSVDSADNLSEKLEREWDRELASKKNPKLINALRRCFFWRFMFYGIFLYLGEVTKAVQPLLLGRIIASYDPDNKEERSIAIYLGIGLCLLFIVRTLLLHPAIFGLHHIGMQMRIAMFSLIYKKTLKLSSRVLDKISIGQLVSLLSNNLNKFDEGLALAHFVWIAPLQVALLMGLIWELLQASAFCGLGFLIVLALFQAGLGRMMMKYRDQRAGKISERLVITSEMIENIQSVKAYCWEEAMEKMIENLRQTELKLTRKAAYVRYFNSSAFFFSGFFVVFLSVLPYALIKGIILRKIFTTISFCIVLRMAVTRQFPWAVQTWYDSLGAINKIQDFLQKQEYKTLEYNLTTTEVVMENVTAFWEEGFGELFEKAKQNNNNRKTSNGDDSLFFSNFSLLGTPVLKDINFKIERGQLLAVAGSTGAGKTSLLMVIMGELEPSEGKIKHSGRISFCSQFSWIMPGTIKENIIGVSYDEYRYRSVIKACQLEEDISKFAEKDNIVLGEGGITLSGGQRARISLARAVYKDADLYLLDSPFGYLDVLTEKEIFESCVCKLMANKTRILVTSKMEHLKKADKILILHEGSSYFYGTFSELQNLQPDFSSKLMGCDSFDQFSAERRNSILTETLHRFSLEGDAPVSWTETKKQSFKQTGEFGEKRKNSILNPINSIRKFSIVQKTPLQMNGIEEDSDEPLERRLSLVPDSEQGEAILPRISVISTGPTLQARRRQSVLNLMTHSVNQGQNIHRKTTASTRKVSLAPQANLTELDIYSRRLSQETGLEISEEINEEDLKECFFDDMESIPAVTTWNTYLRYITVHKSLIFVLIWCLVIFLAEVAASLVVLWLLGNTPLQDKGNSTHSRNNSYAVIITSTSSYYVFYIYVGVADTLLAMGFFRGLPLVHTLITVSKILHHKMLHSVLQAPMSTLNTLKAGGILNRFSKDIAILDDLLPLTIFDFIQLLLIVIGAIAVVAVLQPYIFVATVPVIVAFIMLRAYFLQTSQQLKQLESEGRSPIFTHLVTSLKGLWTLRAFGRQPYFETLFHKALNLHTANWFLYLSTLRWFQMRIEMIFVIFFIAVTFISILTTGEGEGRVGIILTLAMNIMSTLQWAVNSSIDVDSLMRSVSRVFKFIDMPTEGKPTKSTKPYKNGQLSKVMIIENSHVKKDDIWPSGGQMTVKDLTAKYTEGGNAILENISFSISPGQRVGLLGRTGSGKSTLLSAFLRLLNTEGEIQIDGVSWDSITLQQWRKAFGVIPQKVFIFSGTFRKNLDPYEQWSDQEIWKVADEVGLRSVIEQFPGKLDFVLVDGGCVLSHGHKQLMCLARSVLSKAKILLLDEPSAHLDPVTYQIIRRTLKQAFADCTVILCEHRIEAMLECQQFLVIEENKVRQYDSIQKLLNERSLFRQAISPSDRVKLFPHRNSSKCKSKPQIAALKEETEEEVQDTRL
- experiment summary: Transepithelial Clamp Circuit on Human Bronchial Epithelial Cells Conductance Assay (hBE-TECC)
- Format: cell-based
- condition set: testing concentration 1 μM
As shown below, each of these molecules has a reported Maximum % activity (%) value.
Numbers only; they are read as %.

// solved cases for Maximum % activity (%) follow
{"columns": ["molecule", "value units", "Maximum % activity (%)"],
 "data": [
  ["COc1ccc2c(c1)O[C@@H](c1cccc(C(=O)O)c1)C[C@H]2NC(=O)C1(C)COc2cc3c(cc21)OC(F)(F)O3 (stereo partly shown)", "%", 91],
  ["C[C@]1(C(=O)Nc2cccc(N3CC[C@H](C(=O)O)C3)n2)COc2cc3c(cc21)OC(F)(F)O3", "%", 65],
  ["C[C@]1(C(=O)Nc2ccc(Cl)c(-c3cccc(C(=O)O)c3)n2)COc2cc3c(cc21)OC(F)(F)O3", "%", 50]
]}

For COc1ccc2c(c1)O[C@@H](c1ccc(C(=O)O)cn1)C[C@H]2NC(=O)[C@@]1(C)COc2cc3c(cc21)OC(F)(F)O3 , what is its reported Maximum % activity (%)?
84

----------
- measurement target: F508delCFTR cell surface expression in CFBE41o-F508delCFTR-HRP cells (Homo sapiens, UniProt P13569, DEL508-508)
- Construct: fused on or other part: Horseradish peroxidase (HRP) reporter inserted in the fourth exofacial (extracellular) loop of CFTR; expression is doxycycline-inducible
- Sequence (P13569 with tags, fused parts or gaps DEL508-508 limits assumed): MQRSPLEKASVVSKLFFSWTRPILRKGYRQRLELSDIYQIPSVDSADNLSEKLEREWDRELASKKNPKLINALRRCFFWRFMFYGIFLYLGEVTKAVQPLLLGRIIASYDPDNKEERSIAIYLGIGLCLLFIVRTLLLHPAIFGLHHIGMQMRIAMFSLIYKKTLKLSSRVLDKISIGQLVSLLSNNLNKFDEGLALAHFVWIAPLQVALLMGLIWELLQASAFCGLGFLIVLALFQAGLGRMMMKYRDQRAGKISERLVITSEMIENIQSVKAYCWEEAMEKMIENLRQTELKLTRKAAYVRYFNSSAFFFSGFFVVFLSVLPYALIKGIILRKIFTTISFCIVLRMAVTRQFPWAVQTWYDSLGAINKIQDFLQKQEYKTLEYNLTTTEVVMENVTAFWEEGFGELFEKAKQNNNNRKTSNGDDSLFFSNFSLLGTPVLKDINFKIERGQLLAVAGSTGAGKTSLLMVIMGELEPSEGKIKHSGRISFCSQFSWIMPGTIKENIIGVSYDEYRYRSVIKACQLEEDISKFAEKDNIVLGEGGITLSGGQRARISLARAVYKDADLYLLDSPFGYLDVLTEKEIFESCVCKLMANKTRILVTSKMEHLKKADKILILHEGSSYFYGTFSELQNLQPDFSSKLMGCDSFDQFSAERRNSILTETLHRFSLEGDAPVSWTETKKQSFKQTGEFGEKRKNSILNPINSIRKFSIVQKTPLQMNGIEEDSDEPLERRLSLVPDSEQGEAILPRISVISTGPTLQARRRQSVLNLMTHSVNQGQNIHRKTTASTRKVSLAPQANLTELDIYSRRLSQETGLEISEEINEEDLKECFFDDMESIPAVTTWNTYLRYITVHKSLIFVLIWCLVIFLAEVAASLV
- Sequence (P13569 919-1480 limits assumed, stated change not applied): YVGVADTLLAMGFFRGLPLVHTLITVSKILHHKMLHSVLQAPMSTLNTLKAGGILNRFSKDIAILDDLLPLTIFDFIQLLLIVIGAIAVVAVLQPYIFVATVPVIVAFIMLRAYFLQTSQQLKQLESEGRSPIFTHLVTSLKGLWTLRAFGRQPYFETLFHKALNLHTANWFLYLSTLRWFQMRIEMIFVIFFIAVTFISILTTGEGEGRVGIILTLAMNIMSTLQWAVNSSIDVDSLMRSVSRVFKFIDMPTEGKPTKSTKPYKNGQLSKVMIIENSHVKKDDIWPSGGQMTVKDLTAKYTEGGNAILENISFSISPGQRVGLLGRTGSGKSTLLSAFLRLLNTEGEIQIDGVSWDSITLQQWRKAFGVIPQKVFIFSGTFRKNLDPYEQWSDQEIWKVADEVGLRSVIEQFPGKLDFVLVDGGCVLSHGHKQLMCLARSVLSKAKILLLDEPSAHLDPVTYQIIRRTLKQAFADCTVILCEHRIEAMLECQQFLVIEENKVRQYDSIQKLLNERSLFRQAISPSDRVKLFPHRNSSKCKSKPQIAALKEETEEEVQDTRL
- experiment summary: Cell Surface Expression-Horse Radish Peroxidase (CSE-HRP) Assay
- Assay type: cell-based
- condition set: maximum at any tested concentration, normalized to on-plate positive control (3 μM)
Measured Maximum % activity (%) by item
A number alone suffices; assume %.

{"columns": ["compound", "value units", "Maximum % activity (%)"],
 "data": [
  ["C[C@]1(C(=O)Nc2cc3cc(C4(CO)CC4)n(C[C@@H](O)CO)c3cc2F)COc2cc3c(cc21)OC(F)(F)O3 [Example 136]", "%", 99],
  ["C[C@]1(C(=O)N[C@@H]2C[C@H]([C@H]3CC[C@H](C(=O)N(CCO)CCO)CC3)Oc3cc(OC(F)(F)F)ccc32)COc2cc3c(cc21)OC(F)(F)O3 [Example 254]", "%", 136]
]}

Consider the compound Cc1ccc(NC(=O)C2(C)COc3cc4c(cc32)OC(F)(F)O4)nc1-c1cccc(C(=O)N(C)C)c1 (stereo not drawn) [Example 75] and give its measured Maximum % activity (%).
94

If you can, please state the reported Maximum % activity (%) value of CC1(C)OC[C@H](CN2CCC([C@H]3C[C@@H](NC(=O)[C@@]4(C)COc5cc6c(cc54)OC(F)(F)O6)c4ccc(OC(F)(F)F)cc4O3)CC2)O1 [Example 247] .
181

Data request, read-out Maximum % activity (%), for COc1ccc2c(c1)O[C@@H](c1ccc(C(=O)O)cc1)C[C@H]2NC(=O)[C@]1(C)CCc2c1ccc1c2OCO1 [Example 46]
142

Query: Maximum % activity (%); subject: CCOC(=O)[C@H]1CC[C@H]([C@@H]2C[C@H](NC(=O)[C@@]3(C)COc4cc5c(cc43)OC(F)(F)O5)c3ccc(OC(F)F)cc3O2)CC1 [Example 159]
82

I'd like to know its Maximum % activity (%). The compound in question is CC(C)(COCc1ccccc1)c1cc2cc(NC(=O)[C@]3(C)COc4cc5c(cc43)OC(F)(F)O5)c(F)cc2n1C[C@@H](O)COCc1ccccc1 [Example 205]
18

So what does the record say about Maximum % activity (%) for COC(=O)c1ccc([C@H]2C[C@@H](NC(=O)[C@@]3(C)COc4cc5c(cc43)OC(F)(F)O5)c3ccc(OC)cc3O2)cc1 [Example 19] ?
130

State the recorded Maximum % activity (%) for this entry: COc1ccc2c(c1)O[C@H](c1ccc(OCc3ccccc3)nn1)C[C@H]2NC(=O)[C@@]1(C)COc2cc3c(cc21)OC(F)(F)O3 (single isomer, unassigned) [Example 272]
108

I'd like to know its Maximum % activity (%). The compound in question is C[C@]1(C(=O)Nc2cccc(N3CC[C@@H](O)C3)n2)COc2cc3c(cc21)OC(F)(F)O3 [Example 91]
116

Quick one: Maximum % activity (%) for C[C@]1(C(=O)Nc2cccc(N3CC[C@@H](S(C)(=O)=O)C3)n2)COc2cc3c(cc21)OC(F)(F)O3 [Example 111] ?
91

Return reported Maximum % activity (%); argument: COC(=O)c1cccc([C@H]2C[C@@H](NC(=O)C3(C)CCc4cc5c(cc43)OC(F)(F)O5)c3ccc(OC)cc3O2)c1 (stereo partly drawn) [Example 52]
77

----------
- measurement target: F508delCFTR in primary hBE cells with F508del/F508del CFTR mutation (Homo sapiens, UniProt P13569, DEL508-508)
- Construct: cells isolated from CF patients with the homozygous mutation; endogenous in cells; host or cells: primary human bronchial epithelial (hBE) cells from F508del/F508del CF patients
- experiment summary: Transepithelial Clamp Circuit on Human Bronchial Epithelial Cells Conductance Assay (hBE-TECC)
- Format: cell-based
- condition set: primary hBE cells F508del/F508del, 18-24 hours at 37° C., equivalent short circuit current, 6 concentrations
property name: pEC50
In textbook form, pEC50 equals minus log to base ten of the concentration in mol/L.

{"columns": ["compound", "pEC50"],
 "data": [
  ["C[C@]1(C(=O)N[C@@H]2C[C@H](C3(C(=O)O)CC3)Oc3cc(OC(F)(F)F)ccc32)COc2cc3c(cc21)OC(F)(F)O3 [Example 166]", 7.96],
  ["COc1ccc2c(c1)O[C@@H]([C@H]1CC[C@H](C(=O)O)CC1)C[C@H]2NC(=O)[C@@]1(C)CCc2cc3c(cc21)OC(F)(F)O3 [Example 168]", 7.37],
  ["CC(C)(CO)c1nc2cc(NC(=O)[C@@]3(C)COc4cc5c(cc43)OC(F)(F)O5)c(F)cc2n1C[C@@H](O)CO [Example 137]", 5.59],
  ["COc1ccc2c(c1)O[C@@H](c1ccc(N3C[C@@H](O)[C@H](O)C3)nn1)C[C@H]2NC(=O)[C@@]1(C)COc2cc3c(cc21)OC(F)(F)O3 [Example 251]", 8.30]
]}

Look up pEC50 for this compound: COc1ccc2c(c1)O[C@@H](c1ccc(C(=O)NCC(O)CO)cn1)C[C@H]2NC(=O)[C@@]1(C)COc2cc3c(cc21)OC(F)(F)O3 (stereo partly drawn) [Example 243]
7.68

Suppose we examine the compound C[C@]1(C(=O)N[C@@H]2C[C@H](c3ccc(C(=O)O)cn3)Oc3cc(OC(F)(F)F)ccc32)COc2cc3c(cc21)OC(F)(F)O3 [Example 145] ; what pEC50 value has been reported?
9.08

----------
- measurement target: F508delCFTR cell surface expression in CFBE41o-F508delCFTR-HRP cells (Homo sapiens, UniProt P13569, DEL508-508)
- Construct: fused on or other part: Horseradish peroxidase (HRP) reporter inserted in the fourth exofacial (extracellular) loop of CFTR; expression is doxycycline-inducible
- experiment summary: Cell Surface Expression-Horse Radish Peroxidase (CSE-HRP) Assay
- condition set: CFBE41o-F508delCFTR-HRP cells, 18-24 hours at 33° C., 8-point curve, highest concentration 20 μM
property name: EC50 (µM)
Express it in µM; write the number only.

{"columns": ["compound", "property name", "readout value"],
 "data": [
  ["CC(C)(C)OC(=O)CN1CCC([C@@H]2C[C@H](NC(=O)[C@@]3(C)COc4cc5c(cc43)OC(F)(F)O5)c3ccc(OC(F)(F)F)cc3O2)CC1", "EC50", 2.22],
  ["CC(C)(CO)c1cc2cc(NC(=O)[C@@]3(C)COc4cc5c(cc43)OC(F)(F)O5)c(F)cc2n1C[C@@H](O)CC#N", "EC50", 0.28],
  ["C[C@]1(C(=O)Nc2cccc(N3CCC(c4ccc(F)cc4)C3)n2)COc2cc3c(cc21)OC(F)(F)O3 (stereo partly shown)", "EC50", 0.75]
]}

For the compound shown here, CC1CN(c2cccc(NC(=O)[C@@]3(C)COc4cc5c(cc43)OC(F)(F)O5)n2)CC1C(=O)O (stereo partly shown) , give the reported EC50.
1.1

Given the entry C[C@]1(C(=O)N[C@@H]2C[C@H]([C@H]3CC[C@H](C(=O)NCC(O)CO)CC3)Oc3cc(OC(F)(F)F)ccc32)COc2cc3c(cc21)OC(F)(F)O3 (stereo partly shown) , report its measured EC50.
0.13

Query (compound): CC1(C(=O)Nc2cccc(N3CC[C@@H](C(=O)O)C3)n2)COc2cc3c(cc21)OC(F)(F)O3 (stereo partly shown) ; field requested: EC50
1.47

// lookup EC50 for CCOC(=O)C1([C@@H]2C[C@H](NC(=O)[C@@]3(C)COc4cc5c(cc43)OC(F)(F)O5)c3ccc(OC(F)(F)F)cc3O2)CC1
2.64

Could you share which EC50 value was measured for COc1ccc2c(c1)O[C@@H](c1cnc(C(=O)O)cn1)C[C@H]2NC(=O)[C@@]1(C)COc2cc3c(cc21)OC(F)(F)O3 ?
1.33
